target: α-glucosidase (E.C.3.2.1.20) (Saccharomyces cerevisiae, UniProt P53341); assay: α-glucosidase inhibitory activity (p-nitrophenyl-α-d-glucopyranoside substrate, absorbance at 400 nm); assay type: biochemical; details: in vitro; 0.1 M phosphate buffer, pH 6.8, 37° C.; standard acarbose; unit inferred; read-out: IC50, α-glucosidase inhibition
Sequence (P53341 whole entry): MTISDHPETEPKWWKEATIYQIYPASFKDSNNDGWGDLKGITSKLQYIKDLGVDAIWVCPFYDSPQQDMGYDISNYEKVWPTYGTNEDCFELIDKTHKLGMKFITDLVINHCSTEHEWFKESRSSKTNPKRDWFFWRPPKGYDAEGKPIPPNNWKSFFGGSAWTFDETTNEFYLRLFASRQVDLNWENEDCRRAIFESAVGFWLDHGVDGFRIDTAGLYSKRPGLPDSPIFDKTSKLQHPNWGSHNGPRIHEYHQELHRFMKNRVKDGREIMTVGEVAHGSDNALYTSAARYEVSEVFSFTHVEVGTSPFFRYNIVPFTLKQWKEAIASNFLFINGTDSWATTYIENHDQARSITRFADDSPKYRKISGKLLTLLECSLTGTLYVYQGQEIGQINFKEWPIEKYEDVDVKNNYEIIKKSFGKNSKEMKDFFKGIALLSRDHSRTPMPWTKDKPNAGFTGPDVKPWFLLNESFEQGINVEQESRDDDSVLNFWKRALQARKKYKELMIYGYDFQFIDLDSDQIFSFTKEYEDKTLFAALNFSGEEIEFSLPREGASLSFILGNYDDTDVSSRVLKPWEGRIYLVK
endpoint: IC50 (µM)
Numbers only, in µM.

Q: Which IC50 value is on record for CC(C)=CCC1=C(O)C(=O)c2ccccc2C1=O ?
A: 33.1
